MEASUREMENT_PROTOCOL: inhibitors of TNFa-induced NFkB p65 translocation, primary screen, imaging, HUVEC, MLSMR starter and 10KST1 sets (AID 438);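 further: compound added about 3h40 before a 20 min TNFalpha stimulation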
TEST_CONDITIONS: HUVEC TNFa-induced p65 nuclear translocation; measured here: nuclei count (cytotoxicity indicator), at 2.08 µM
Property: cell count; scope: individual compounds

COMPOUND	cell count
CCN(CC)CCCNC1CCS(=O)(=O)C1 (stereo unspecified)	730
Cc1[nH]nc(N=CC2=C(O)CC(C)(C)CC2=O)c1-c1ccc(Cl)cc1	344
COc1ccc2c(c1)C1(Nc3ccccc3-c3nc4ccccc4n31)C(=O)N2 (stereo unspecified)	240
O=C(NCC1CCCO1)c1cc(-c2ccncc2)nc2ccc(S(=O)(=O)N3CCOCC3)cc12 (stereo unspecified)	878
O=C(O)C1CCCCC1C(=O)Nc1ccccn1 (stereo unspecified)	475
O=C(Nc1ccccc1Cl)c1c(F)c(F)c(F)c(F)c1F	407
C=CCn1c(Cc2csc(N)n2)nnc1SCC(=O)OCC	313
O=c1c2[nH]c3ccc(Cl)cc3c2ncn1Cc1ccccn1	302
CCCN1C(=O)c2cc(C(=O)O)ccc2C1O (stereo unspecified)	817
O=C(c1sc2ccccc2c1Cl)N(Cc1cccs1)C1CCS(=O)(=O)C1 (stereo unspecified)	677
CCC(=O)Nc1cc(Cl)ccc1N1CCN(C(=O)CC)CC1	376

====

MEASUREMENT_PROTOCOL: TLR3 IRF3 reporter activation blockers – cell-based, poly I:C stimulus, luciferase, 10K MLSCN set, primary screen (AID 602277)
TEST_CONDITIONS: HEK293-TLR3 RL24 IRF3 luciferase reporter, at 10 µM, stronger effect = higher value
Each entry falls in a class defined on inhibition; the bands are bottom = under -20%, middle = from -20% up to 10%, top = 10% and over

COMPOUND	ASSIGNED_CLASS
O=C(NCc1ccc2c(c1)OCO2)C1CCCN(S(=O)(=O)c2cccc3cccnc23)C1 (stereo not drawn)	top
CC(=O)c1cccc(NC(=O)NCc2ccccn2)c1	bottom
O=C(NCCSCc1ccco1)Nc1cccc(Cl)c1	bottom
N#CC1=C(SCc2ccccc2)NC(=O)C(C#N)C12CCCC2 (stereo not drawn)	middle
CCOC(=O)N1CCC(NC(=O)c2ccc3c(c2)N(C)CCS3)CC1	top
COC(=O)c1cc2ccsc2n1CC(=O)Nc1cc(C)cc(C)c1	bottom
CCOC(=O)Cc1csc(NC(=O)CSc2nnc(-c3ccncc3)n2Cc2ccco2)n1	top
O=C(Nc1cccc(F)c1)c1ccc2c(c1)OCO2	bottom
O=C(O)Cc1ccccc1C(=O)O	top
CC(=O)N1CN(C2CCCC2)Cc2c1sc1c2CCCC1	top
Cc1ccc(O)c(-c2cc(C(=O)Nc3ccc(S(=O)(=O)N4CC(C)OC(C)C4)cc3)[nH]n2)c1 (stereo not drawn)	top
c1ccc(-c2noc(C34CC5CC(CC(C5)C3)C4)n2)nc1	bottom
COc1ccc(CNC(=O)C(c2ccco2)N(Cc2cccs2)C(=O)Cc2cccs2)cc1 (stereo not drawn)	top
Cc1ccc(C)c(N2CCN(C(=O)c3ccc(CS(=O)(=O)c4ccccc4C)o3)CC2)c1	top
Fc1ccc(-c2nnc3ccc(N4CCCC4)nn23)cc1	bottom
CCOC(=O)c1c(NCc2ccc3c(c2)OCO3)c2ccccc2[nH]c1=O	middle
c1ccc(-c2nnc(SCc3nc4ccccc4[nH]3)o2)cc1	middle
COc1ccc(-c2nnc(SCc3nnc(-c4ccc(Cl)cc4)o3)n2-c2ccccc2)cc1	bottom
Cc1cccc(C(=O)O)c1NC(=O)c1ccc(F)cc1	middle
CSc1nc2c(ccc3ccccc32)o1	bottom
CN(C1CCCCC1)S(=O)(=O)c1ccc(S(=O)(=O)N2CCCC2)cc1	top
CN(C)c1cccc(C(=O)OCC(=O)NCc2ccco2)c1	middle
